Data origin, for the record: ChEMBL document CHEMBL4477199

Test system: HepG2
Experiment: Cytotoxicity against human HepG2 cells assessed as reduction in cell viability after 72 hrs by MTT assay
Format: functional, cell-based
Settings: HepG2, 72 h
Some compounds, each annotated with its measured log10 of AC50.
Reported Property: log10 of AC50 (log10 of the value in µM)

In [3]: df
Out[3]:
                                   compound  reported_property  obs_value
0  C[C@](O)(COc1ccc(C#N)cc1)C(=O)Nc1ccc(C#N)c(C(F)(F)F)c1      log10 of AC50       1.52
1  C[C@](O)(CSc1ccc(C(F)(F)F)cc1)C(=O)Nc1ccc(C#N)c(C(F)(F)F)c1      log10 of AC50       1.79
2  CC(O)(CSc1ccccc1C(F)(F)F)C(=O)Nc1ccc(C#N)c(C(F)(F)F)c1 (stereo not given)      log10 of AC50       1.41
3  CC(O)(CS(=O)(=O)c1ccccc1C(F)(F)F)C(=O)Nc1ccc([N+](=O)[O-])c(C(F)(F)F)c1 (stereo not given)      log10 of AC50       1.51
4  CC(O)(CSc1ccccc1C(F)(F)F)C(=O)Nc1ccc([N+](=O)[O-])c(C(F)(F)F)c1 (stereo not given)      log10 of AC50       0.44

---

Assay: Apparent permeability from basolateral to apical side in human Caco2 cells at 10 uM incubated for 120 mins by LC-MS/MS analysis
Details: Caco-2
Reported Property: Papp B→A at 2 h, 10 µM (×10⁻⁶ cm/s)

In [3]: df
Out[3]:
                                   molecule       reported_property  obs_value
0  C[C@](O)(CSc1cccc(C(F)(F)F)c1)C(=O)Nc1ccc(C#N)c(C(F)(F)F)c1  Papp B→A at 2 h, 10 µM       12.2
1  CC(C)NCC(O)COc1cccc2ccccc12 (centres undefined)  Papp B→A at 2 h, 10 µM       41.6
2  CC(O)(CS(=O)(=O)c1ccccc1C(F)(F)F)C(=O)Nc1ccc([N+](=O)[O-])c(C(F)(F)F)c1 (centres undefined)  Papp B→A at 2 h, 10 µM       17.2
3  C[C@](O)(CSc1ccc(C(F)(F)F)cc1)C(=O)Nc1ccc(C#N)c(C(F)(F)F)c1  Papp B→A at 2 h, 10 µM       4.74

---

Test: Efflux ratio of apparent permeability from basolateral to apical side over apical to basolateral side in human Caco2 cells at 10 uM incubated for 120 mins by LC-MS/MS analysis
Details: Caco-2
Reported Property: efflux ratio at 2 h, 10 µM

In [3]: df
Out[3]:
                                   molecule           reported_property  obs_value
0  CC(C)NCC(O)COc1cccc2ccccc12 (centres undefined)  efflux ratio at 2 h, 10 µM       1.03
1  CC(O)(CSc1ccccc1C(F)(F)F)C(=O)Nc1ccc([N+](=O)[O-])c(C(F)(F)F)c1 (centres undefined)  efflux ratio at 2 h, 10 µM      0.843
2  CC(O)(CS(=O)(=O)c1ccccc1C(F)(F)F)C(=O)Nc1ccc([N+](=O)[O-])c(C(F)(F)F)c1 (centres undefined)  efflux ratio at 2 h, 10 µM       1.29
3  CC(O)(CSc1cccc(C(F)(F)F)c1)C(=O)Nc1ccc([N+](=O)[O-])c(C(F)(F)F)c1 (centres undefined)  efflux ratio at 2 h, 10 µM      0.853
4  CC(O)(CSc1cccc(C(F)(F)F)c1)C(=O)Nc1ccc(C#N)c(C(F)(F)F)c1 (centres undefined)  efflux ratio at 2 h, 10 µM       1.21
5  C[C@](O)(CSc1cccc(C(F)(F)F)c1)C(=O)Nc1ccc(C#N)c(C(F)(F)F)c1  efflux ratio at 2 h, 10 µM       1.78
6  C[C@](O)(COc1ccc(C#N)cc1)C(=O)Nc1ccc(C#N)c(C(F)(F)F)c1  efflux ratio at 2 h, 10 µM      0.848
7  C[C@](O)(CSc1ccc(C(F)(F)F)cc1)C(=O)Nc1ccc(C#N)c(C(F)(F)F)c1  efflux ratio at 2 h, 10 µM      0.817
8  CC(O)(COc1ccc(C(F)(F)F)cc1)C(=O)Nc1ccc(C#N)c(C(F)(F)F)c1 (centres undefined)  efflux ratio at 2 h, 10 µM      0.943

---

Test system: CWR22R
Experiment: Antiproliferative activity against human 22Rv1 cells assessed as relative inhibition after 96 hrs by propidium iodide staining based fluorescence 2D monolayer assay
Assay type: functional, cell-based
Conditions: 22Rv1, 96 h
Criterion: IC50 strictly less than 40 µM. Met: Yes. Not met: No.

                                   compound  class_label
0  CC(O)(CS(=O)(=O)c1ccc(OC(F)(F)F)cc1)C(=O)Nc1ccc([N+](=O)[O-])cc1C(F)(F)F (stereo unspecified)           No
1  C[C@](O)(CS(=O)(=O)c1ccc(F)cc1)C(=O)Nc1ccc(C#N)c(C(F)(F)F)c1 [(R)-BICALUTAMIDE]           No
2  CC1(C)C(=O)N(c2ccc(C(F)(F)F)cc2)C(=O)N1c1ccc([N+](=O)[O-])c(C(F)(F)F)c1           No
3  CC(O)(CS(=O)(=O)c1ccc(F)cc1)C(=O)Nc1ccc(C#N)c(C(F)(F)F)c1 (stereo unspecified) [BICALUTAMIDE]           No
4  CC(O)(CSc1ccccc1OC(F)(F)F)C(=O)Nc1ccc([N+](=O)[O-])cc1C(F)(F)F (stereo unspecified)          Yes
5  O=C(Nc1ccc([N+](=O)[O-])c(C(F)(F)F)c1)C(O)(CSc1ccccc1C(F)(F)F)C(F)(F)F (stereo unspecified)          Yes

---

Tested on: VCaP
Assay: Antiproliferative activity against human VCaP cells assessed as relative inhibition after 96 hrs by propidium iodide staining based fluorescence 2D monolayer assay
Type: functional, cell-based
Criterion: IC50 strictly less than 2 µM. Met: T. Not met: F.

In [3]: df
Out[3]:
                                   molecule  class_label
0  CC1(C)C(=O)N(c2ccc(C(F)(F)F)cc2)C(=O)N1c1ccc([N+](=O)[O-])c(C(F)(F)F)c1            T
1  C[C@](O)(CS(=O)(=O)c1ccc(F)cc1)C(=O)Nc1ccc(C#N)c(C(F)(F)F)c1 [(R)-BICALUTAMIDE]            F
2  O=C(Nc1ccc([N+](=O)[O-])c(C(F)(F)F)c1)C(O)(CSc1ccccc1C(F)(F)F)C(F)(F)F (stereo unspecified)            F
3  CC(O)(CS(=O)(=O)c1ccc(OC(F)(F)F)cc1)C(=O)Nc1ccc([N+](=O)[O-])cc1C(F)(F)F (stereo unspecified)            F
4  CC(O)(CS(=O)(=O)c1ccc(F)cc1)C(=O)Nc1ccc(C#N)c(C(F)(F)F)c1 (stereo unspecified) [BICALUTAMIDE]            F
5  CC(O)(CSc1ccccc1OC(F)(F)F)C(=O)Nc1ccc([N+](=O)[O-])cc1C(F)(F)F (stereo unspecified)            F

---

Target: Androgen receptor (Rattus norvegicus)
Sequence (whole entry): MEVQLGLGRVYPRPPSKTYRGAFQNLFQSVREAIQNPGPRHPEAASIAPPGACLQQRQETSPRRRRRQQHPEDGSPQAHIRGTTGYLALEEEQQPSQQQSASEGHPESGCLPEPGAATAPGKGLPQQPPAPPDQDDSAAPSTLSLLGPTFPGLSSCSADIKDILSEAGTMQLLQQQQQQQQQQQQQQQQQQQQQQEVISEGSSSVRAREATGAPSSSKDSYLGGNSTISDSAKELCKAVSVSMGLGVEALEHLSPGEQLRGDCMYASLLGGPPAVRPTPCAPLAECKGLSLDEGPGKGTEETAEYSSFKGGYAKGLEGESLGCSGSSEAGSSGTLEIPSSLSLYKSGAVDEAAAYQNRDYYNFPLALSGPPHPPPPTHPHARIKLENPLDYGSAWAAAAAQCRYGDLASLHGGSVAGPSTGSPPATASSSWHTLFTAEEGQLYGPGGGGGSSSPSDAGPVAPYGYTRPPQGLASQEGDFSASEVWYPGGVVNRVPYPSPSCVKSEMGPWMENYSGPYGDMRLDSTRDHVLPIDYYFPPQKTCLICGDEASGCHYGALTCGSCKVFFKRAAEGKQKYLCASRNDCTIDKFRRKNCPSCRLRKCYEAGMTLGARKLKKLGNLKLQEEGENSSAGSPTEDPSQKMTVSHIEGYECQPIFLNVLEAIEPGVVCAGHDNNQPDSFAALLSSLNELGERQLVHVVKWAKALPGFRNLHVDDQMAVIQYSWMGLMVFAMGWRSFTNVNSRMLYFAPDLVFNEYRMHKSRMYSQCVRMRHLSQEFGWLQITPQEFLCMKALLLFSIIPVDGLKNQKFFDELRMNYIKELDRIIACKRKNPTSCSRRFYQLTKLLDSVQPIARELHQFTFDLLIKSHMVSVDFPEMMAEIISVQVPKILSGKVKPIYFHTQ
Assay: Antagonist activity at rat androgen receptor fused with DNA-binding domain of GAL4 expressed in AR-UAS-bla GripTite 293 cells assessed as inhibition of R1881-induced receptor activation preincubated for 30 mins followed by R1881 addition measured after 16 to 24 hrs by betalactamase reporter gene assay
Format: cell-based
Reported Property: inhibition

>>> df
                                   compound              obs_value
0  CC1(C)C(=O)N(c2ccc(C(F)(F)F)cc2)C(=O)N1c1ccc([N+](=O)[O-])cc1C(F)(F)F  Dose-dependent effect
1  CC(O)(CS(=O)(=O)c1ccccc1C(F)(F)F)C(=O)Nc1ccc([N+](=O)[O-])c(C(F)(F)F)c1 (stereo not given)  Dose-dependent effect
2  CC1(C)C(=O)N(c2cccc(C(F)(F)F)c2)C(=O)N1c1cccc(C(F)(F)F)c1  Dose-dependent effect
3  CC(O)(CS(=O)(=O)c1cccc(C(F)(F)F)c1)C(=O)Nc1ccc([N+](=O)[O-])c(C(F)(F)F)c1 (stereo not given)  Dose-dependent effect
4  CC(O)(CSc1ccccc1C(F)(F)F)C(=O)Nc1ccc([N+](=O)[O-])c(C(F)(F)F)c1 (stereo not given)  Dose-dependent effect
5  CC(O)(COc1ccccc1C(F)(F)F)C(=O)Nc1ccc([N+](=O)[O-])c(C(F)(F)F)c1 (stereo not given)  Dose-dependent effect
6  CC1(C)C(=O)N(c2cccc(C(F)(F)F)c2)C(=O)N1c1ccc([N+](=O)[O-])cc1C(F)(F)F  Dose-dependent effect
7  CC(O)(COc1ccccc1OC(F)(F)F)C(=O)Nc1ccc([N+](=O)[O-])c(C(F)(F)F)c1 (stereo not given)  Dose-dependent effect
8  CC(O)(COc1cccc(OC(F)(F)F)c1)C(=O)Nc1ccc([N+](=O)[O-])c(C(F)(F)F)c1 (stereo not given)  Dose-dependent effect
9  CC1(C)C(=O)N(c2ccc(C(F)(F)F)cc2)C(=O)N1c1ccc([N+](=O)[O-])c(C(F)(F)F)c1  Dose-dependent effect
